biological target: EGFR (Homo sapiens, UniProt P00533); construct: Kinases are expressed as either kinase domains or full length constructs; made in house; test: Kinase inhibition assay (33P transfer), EGFR; format: biochemical; settings: Table 2, class symbols A-E; read-out: EGFR-1
Sequence (P00533 25-1210, species assumed): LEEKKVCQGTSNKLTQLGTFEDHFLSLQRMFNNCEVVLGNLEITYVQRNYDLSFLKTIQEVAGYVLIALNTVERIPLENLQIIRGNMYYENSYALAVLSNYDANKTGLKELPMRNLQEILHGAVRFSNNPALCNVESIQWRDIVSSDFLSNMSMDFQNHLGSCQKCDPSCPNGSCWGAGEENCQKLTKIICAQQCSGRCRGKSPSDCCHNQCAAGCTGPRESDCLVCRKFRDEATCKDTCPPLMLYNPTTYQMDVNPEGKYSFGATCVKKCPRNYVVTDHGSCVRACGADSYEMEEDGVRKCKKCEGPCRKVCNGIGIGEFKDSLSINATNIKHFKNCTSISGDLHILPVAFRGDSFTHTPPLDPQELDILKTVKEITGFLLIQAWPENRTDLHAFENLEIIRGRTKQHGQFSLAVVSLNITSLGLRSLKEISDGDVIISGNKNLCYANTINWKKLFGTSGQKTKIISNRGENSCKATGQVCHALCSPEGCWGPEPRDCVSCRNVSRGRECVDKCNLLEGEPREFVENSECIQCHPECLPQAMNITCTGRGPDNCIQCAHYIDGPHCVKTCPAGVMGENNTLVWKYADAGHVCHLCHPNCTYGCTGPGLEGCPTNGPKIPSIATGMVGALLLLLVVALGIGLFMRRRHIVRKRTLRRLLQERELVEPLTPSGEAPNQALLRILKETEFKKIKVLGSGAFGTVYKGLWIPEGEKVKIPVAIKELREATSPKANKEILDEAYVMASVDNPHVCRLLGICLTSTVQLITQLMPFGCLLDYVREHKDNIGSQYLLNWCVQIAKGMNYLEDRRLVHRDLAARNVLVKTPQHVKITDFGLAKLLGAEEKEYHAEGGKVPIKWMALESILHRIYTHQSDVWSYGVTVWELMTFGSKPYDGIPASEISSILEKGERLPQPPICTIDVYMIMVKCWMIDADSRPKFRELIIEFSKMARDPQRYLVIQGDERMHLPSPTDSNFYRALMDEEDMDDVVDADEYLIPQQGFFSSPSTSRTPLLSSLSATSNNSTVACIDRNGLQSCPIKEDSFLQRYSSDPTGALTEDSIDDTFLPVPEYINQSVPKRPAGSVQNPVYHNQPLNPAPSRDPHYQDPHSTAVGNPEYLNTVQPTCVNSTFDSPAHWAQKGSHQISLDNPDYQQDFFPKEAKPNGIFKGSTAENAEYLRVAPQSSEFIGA
Entries and their IC50 values follow.

Here are 3 compounds together with their reported answers.
Compound | IC50
COc1cc(Nc2ncnc(-c3cccnc3NC3CCc4ccccc43)n2)cc(OC)c1OC (centres unmarked) | 5.1 to 7.44 µM
Fc1ccc(CNc2ncnc(Nc3cc(-c4ccco4)n[nH]3)n2)cc1 | 9.96 to 12.8 µM
COc1cccc(CCNc2ncnc(Nc3ccc4c(cnn4Cc4ccccc4)c3)n2)c1OC | > 9.34 µM

Any idea what its IC50 is? The compound is COC(=O)c1ccc(-c2cc(Nc3ncnc(Nc4cccc(Cc5nnn[nH]5)c4)n3)[nH]n2)cc1
0.852 to 5.11 µM

And COc1ccc(Nc2ncnc(Nc3cc(-c4ccc(C)cc4)n[nH]3)n2)c(C)c1 ?
1.03 to 6.19 µM

And COc1ccc(Nc2ncnc(N(C)c3ccc(OC(F)(F)F)cc3)n2)cc1OC ?
0.949 to 5.7 µM

And O=C(O)Cc1cccc(Nc2ncnc(-c3cccnc3Nc3ccccc3)n2)c1 ?
1 to 6.02 µM

And COC(=O)c1ccc(-c2cc(Nc3ncnc(Nc4cc(Cl)cc(Cl)c4)n3)[nH]n2)cc1 ?
> 9.86 µM

And COc1cc(C)c(Nc2ncnc(Nc3cc(-c4ccc(C)cc4)n[nH]3)n2)cc1OC ?
> 10.8 µM

And CCN(CC)CCN(C)c1ncnc(Nc2ccc(OC)c(OC)c2)n1 ?
> 12.5 µM

And Cc1ccc2c(c1)CCCN2c1ncnc(Nc2c(C)ccc3ccccc23)n1 ?
1.05 to 6.29 µM

And c1cc(Cn2ccnn2)cc(Nc2ncnc(-n3c(Nc4ccc5[nH]ccc5c4)nc4ccccc43)n2)c1 ?
4.8 to 7.01 µM

And Cc1ccc(Cl)cc1Nc1ncnc(N2c3ccc(F)cc3CCC2C)n1 (centres unmarked) ?
1.04 to 6.25 µM
